Target: T1, human podocalyxin (human, UniProt O00592 23-558)
T1 construct: also called hPodo; hPodocalyxin
T1 sequence: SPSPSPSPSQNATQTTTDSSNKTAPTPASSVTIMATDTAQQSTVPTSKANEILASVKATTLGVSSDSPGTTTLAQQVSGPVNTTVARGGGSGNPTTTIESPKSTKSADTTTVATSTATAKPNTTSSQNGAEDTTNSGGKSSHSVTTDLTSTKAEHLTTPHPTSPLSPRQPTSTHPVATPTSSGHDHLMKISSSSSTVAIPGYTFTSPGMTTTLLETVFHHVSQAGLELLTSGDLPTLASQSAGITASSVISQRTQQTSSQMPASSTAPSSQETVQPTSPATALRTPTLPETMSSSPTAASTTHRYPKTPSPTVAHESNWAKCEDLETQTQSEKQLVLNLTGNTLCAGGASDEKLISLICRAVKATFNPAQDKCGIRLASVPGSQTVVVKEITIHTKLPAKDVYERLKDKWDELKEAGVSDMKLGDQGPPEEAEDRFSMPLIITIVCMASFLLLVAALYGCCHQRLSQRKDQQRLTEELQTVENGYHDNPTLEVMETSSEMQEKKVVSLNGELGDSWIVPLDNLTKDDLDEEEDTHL
Assay: flow cytometry, supernatant 1:5, hPodo/MDA-MB-231 transient transfectants
endpointLabel: flow cytometry fluorescence (name not given)

binder	measuredResult
Rabbit Podo 83 (Parental rabbit antibody) (antibody, V domains shown, Rabbit constant regions; also called Rb Podo 83 (Rb Constant Region); rabbit Podo-83 (Ab-1)) VH: QSLAESGGRLVTPGTPLTLTCTASGIDLSSYAMGWVRQAPGKGLEYIGFIYASGSIFYASWAKGRFTISKTSSTTVDLKMTSLTTEDTATYFCARAGYYFGGNYDLNLWGQGTLVTVSS VL: DIVLTQTPASVEVAVGGTVTIKCQASQSISNYLAWYQRKPGQPPRLLIYRASTLASGVSSRFKGSGSGTQFTLTISGVECADAATYYCQQGYVSNNLDNIFGGGTEVVVK	139000
Rb VH, Vk 1:1 (Podo 83 rabbit VH, human CH1-CH3, human Ck, and humanized Vk) (antibody, V domains shown, Human CH1-CH3 and human Ck) VH: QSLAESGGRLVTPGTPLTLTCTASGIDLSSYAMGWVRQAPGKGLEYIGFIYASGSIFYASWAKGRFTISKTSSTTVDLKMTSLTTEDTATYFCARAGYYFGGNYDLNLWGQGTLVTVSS VL: DIQMTQSPSSLSASVGDRVTITCQASQSISNYLAWYQQKPGKVPKLLIYRASTLASGVPSRFSGSGSGTDFTLTISSLQPEDVATYYCQQGYVSNNLDNIFGGGTEVVVK	124000
Rb/Hu Podo83 (Podo83 rabbit VH and VL, human IgG1 chimera) (antibody, V domains shown, Rabbit variable domains cloned into human IgG1 and human Ig kappa constant region constructs (pTT5/IgG1, pTT5/Igk); also called anti-PODO; Ab-1) VH: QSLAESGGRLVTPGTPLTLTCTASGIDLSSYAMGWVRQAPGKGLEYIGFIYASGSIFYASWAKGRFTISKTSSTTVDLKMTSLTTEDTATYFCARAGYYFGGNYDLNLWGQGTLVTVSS VL: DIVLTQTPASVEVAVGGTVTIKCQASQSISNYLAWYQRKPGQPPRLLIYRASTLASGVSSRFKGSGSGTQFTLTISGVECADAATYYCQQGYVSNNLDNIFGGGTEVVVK	99300
huPodo 83 2:1 (humanized anti-podocalyxin antibody 83, version 2) (antibody, V domains shown, Cloned into pTT5 plasmids with human IgG heavy chain and human Ig kappa constant regions) VH: EVQLVESGGGLVQPGGSLRLSCAASGIDLSSYAMGWVRQAPGKGLEWVSFIYASGSIFYASWAKGRFTISRDNSNTLYLQMNSLRAEDTAVYYCARAGYYFGGNYDLNLWGQGTLVTVSS VL: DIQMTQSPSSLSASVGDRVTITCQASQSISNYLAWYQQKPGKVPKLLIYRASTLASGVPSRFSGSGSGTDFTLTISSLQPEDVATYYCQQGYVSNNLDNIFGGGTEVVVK	108000
huPodo 83 1:1 (humanized anti-podocalyxin antibody 83, version 1) (antibody, V domains shown, Cloned into pTT5 plasmids with human IgG heavy chain and human Ig kappa constant regions) VH: EVQLVESGGGLVQPGGSLRLSCAASGIDLSSYAMGWVRQAPGKGLEWVSFIYASGSIFYASWAKGRFTISRDNSKNTLYLQMNSLRAEDTAVYYCARAGYYFGGNYDLNLWGQGTLVTVSS VL: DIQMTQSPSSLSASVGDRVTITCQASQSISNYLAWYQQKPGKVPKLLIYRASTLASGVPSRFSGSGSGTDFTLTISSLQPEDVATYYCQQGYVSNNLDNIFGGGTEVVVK	128000
